B1: KLHL14 (parent)
chain: WLYCYDPVMDVWARKQDMNTKRAI

variants of: B1; test: protein stability index of a GFP-peptide fusion (GPS, HEK-293T) (PSI 1-6); higher = more stable; conditions: c terminus: a fixed tail appended;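 further: lentivirally expressed fusions sorted by FACS into six bins by GFP to DsRed ratio, PSI derived from sequencing read proportions per bin multiplied by bin number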

[
  {
    "mutation-name": "D17E",
    "protein stability index": 1.8
  },
  {
    "mutation-name": "D10H",
    "protein stability index": 2.11
  },
  {
    "mutation-name": "V11R",
    "protein stability index": 2.1
  },
  {
    "mutation-name": "R14Q",
    "protein stability index": 2.45
  },
  {
    "mutation-name": "R14A",
    "protein stability index": 1.85
  },
  {
    "mutation-name": "M18T",
    "protein stability index": 2.13
  },
  {
    "mutation-name": "Q16S",
    "protein stability index": 1.94
  },
  {
    "mutation-name": "W1E",
    "protein stability index": 3.72
  },
  {
    "mutation-name": "D10S",
    "protein stability index": 1.99
  },
  {
    "mutation-name": "W1N",
    "protein stability index": 3.29
  },
  {
    "mutation-name": "K15G",
    "protein stability index": 1.56
  },
  {
    "mutation-name": "V11I",
    "protein stability index": 1.43
  },
  {
    "mutation-name": "M18P",
    "protein stability index": 1.98
  },
  {
    "mutation-name": "L2C",
    "protein stability index": 2.18
  },
  {
    "mutation-name": "D17F",
    "protein stability index": 2.24
  },
  {
    "mutation-name": "Q16I",
    "protein stability index": 1.81
  },
  {
    "mutation-name": "R22M",
    "protein stability index": 1.88
  },
  {
    "mutation-name": "A23Q",
    "protein stability index": 2.11
  },
  {
    "mutation-name": "K21I",
    "protein stability index": 1.71
  },
  {
    "mutation-name": "Q16D",
    "protein stability index": 2.15
  },
  {
    "mutation-name": "I24W",
    "protein stability index": 2.39
  },
  {
    "mutation-name": "A23F",
    "protein stability index": 2.24
  },
  {
    "mutation-name": "R14K",
    "protein stability index": 1.9
  },
  {
    "mutation-name": "I24S",
    "protein stability index": 2.86
  },
  {
    "mutation-name": "N19T",
    "protein stability index": 1.88
  },
  {
    "mutation-name": "A13E",
    "protein stability index": 2.36
  },
  {
    "mutation-name": "D10T",
    "protein stability index": 1.69
  },
  {
    "mutation-name": "C4V",
    "protein stability index": 2.08
  },
  {
    "mutation-name": "R22Q",
    "protein stability index": 1.77
  },
  {
    "mutation-name": "Y5T",
    "protein stability index": 1.83
  },
  {
    "mutation-name": "V8Y",
    "protein stability index": 2.14
  },
  {
    "mutation-name": "N19R",
    "protein stability index": 1.83
  },
  {
    "mutation-name": "W1K",
    "protein stability index": 2.55
  },
  {
    "mutation-name": "T20R",
    "protein stability index": 1.77
  },
  {
    "mutation-name": "T20A",
    "protein stability index": 2.07
  },
  {
    "mutation-name": "K15P",
    "protein stability index": 1.64
  },
  {
    "mutation-name": "K21M",
    "protein stability index": 2.08
  },
  {
    "mutation-name": "V11E",
    "protein stability index": 2.3
  },
  {
    "mutation-name": "V8K",
    "protein stability index": 1.88
  },
  {
    "mutation-name": "V8E",
    "protein stability index": 2.17
  },
  {
    "mutation-name": "D6V",
    "protein stability index": 2.23
  },
  {
    "mutation-name": "W1L",
    "protein stability index": 2.53
  },
  {
    "mutation-name": "V8L",
    "protein stability index": 2.25
  },
  {
    "mutation-name": "K15R",
    "protein stability index": 2.14
  },
  {
    "mutation-name": "M9I",
    "protein stability index": 1.9
  },
  {
    "mutation-name": "R22D",
    "protein stability index": 2.13
  },
  {
    "mutation-name": "D10N",
    "protein stability index": 2.1
  },
  {
    "mutation-name": "D6S",
    "protein stability index": 1.7
  },
  {
    "mutation-name": "N19Q",
    "protein stability index": 2.2
  },
  {
    "mutation-name": "M18S",
    "protein stability index": 2.39
  },
  {
    "mutation-name": "C4M",
    "protein stability index": 1.89
  },
  {
    "mutation-name": "C4D",
    "protein stability index": 2.06
  },
  {
    "mutation-name": "Q16A",
    "protein stability index": 2.42
  },
  {
    "mutation-name": "D10W",
    "protein stability index": 2.71
  },
  {
    "mutation-name": "T20P",
    "protein stability index": 2
  },
  {
    "mutation-name": "V11C",
    "protein stability index": 1.91
  },
  {
    "mutation-name": "I24C",
    "protein stability index": 1.99
  },
  {
    "mutation-name": "D17R",
    "protein stability index": 2.34
  },
  {
    "mutation-name": "D10G",
    "protein stability index": 2.77
  },
  {
    "mutation-name": "V8T",
    "protein stability index": 2.45
  },
  {
    "mutation-name": "D6H",
    "protein stability index": 2.6
  },
  {
    "mutation-name": "K15N",
    "protein stability index": 2.03
  },
  {
    "mutation-name": "R14G",
    "protein stability index": 1.81
  },
  {
    "mutation-name": "V8I",
    "protein stability index": 2.03
  },
  {
    "mutation-name": "W12Y",
    "protein stability index": 2.09
  },
  {
    "mutation-name": "C4F",
    "protein stability index": 1.94
  },
  {
    "mutation-name": "L2Y",
    "protein stability index": 2.52
  },
  {
    "mutation-name": "I24H",
    "protein stability index": 2.63
  },
  {
    "mutation-name": "W1C",
    "protein stability index": 2.27
  },
  {
    "mutation-name": "C4S",
    "protein stability index": 2.14
  },
  {
    "mutation-name": "M9A",
    "protein stability index": 2.62
  },
  {
    "mutation-name": "V11W",
    "protein stability index": 1.76
  },
  {
    "mutation-name": "Y3W",
    "protein stability index": 2.42
  },
  {
    "mutation-name": "R22L",
    "protein stability index": 1.83
  },
  {
    "mutation-name": "M9W",
    "protein stability index": 1.64
  },
  {
    "mutation-name": "A13Q",
    "protein stability index": 2.46
  },
  {
    "mutation-name": "L2M",
    "protein stability index": 1.9
  },
  {
    "mutation-name": "I24Y",
    "protein stability index": 2.45
  },
  {
    "mutation-name": "A23L",
    "protein stability index": 1.6
  },
  {
    "mutation-name": "V8G",
    "protein stability index": 1.58
  },
  {
    "mutation-name": "I24Q",
    "protein stability index": 2.79
  },
  {
    "mutation-name": "A13L",
    "protein stability index": 1.97
  },
  {
    "mutation-name": "M18D",
    "protein stability index": 3.05
  },
  {
    "mutation-name": "K21W",
    "protein stability index": 2.2
  }
]
